assayedTarget: T1, scHLA-B27-mmH (engineered HLA-B*27 ectodomain in-line fusion protein) (human (HLA-B*2705, beta-2 …))
T1 construct: also called soluble HLA-B*27 fusion protein
assaySummary: SPR (Biacore), mAb captured, 25 C, HBST pH 7.4
Listed below: t1/2 values for each entry.

{"columns": ["binder", "t1/2"],
 "data": [
  ["H4H2499N (antibody, V domains shown) VH: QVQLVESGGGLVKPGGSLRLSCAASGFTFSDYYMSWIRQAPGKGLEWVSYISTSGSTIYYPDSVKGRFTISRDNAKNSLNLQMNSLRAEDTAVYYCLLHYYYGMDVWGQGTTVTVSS VL: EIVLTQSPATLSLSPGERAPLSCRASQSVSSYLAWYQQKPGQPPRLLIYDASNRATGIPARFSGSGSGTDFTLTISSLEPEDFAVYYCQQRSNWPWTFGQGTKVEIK", "7 min"],
  ["H4H2490N (antibody, V domains shown) VH: QVQLVQSGADVKWPGASVKVSCRASGYTFTGYYMHWVRQAPGQGLEWMGWINPNNGGTNYAQKFQGRVTMTRDTSITTVYMELSSLISDDTAVYYCARGEDLELRNYYYYGMDVWGQGTSVTVSS VL: DIQMTQSPSSLSASVGDRVTITCRASQSISSYLNWYQQKPGKAPKLLIYAASNLQSGVPSRFSGSGFGTDFTLTISSLQSEDFATYYCQQTYSTRTFGRGTKVEIN", "33 min"],
  ["H4H2480N (antibody, V domains shown) VH: QVQLQQWGAGLLKPSETLSLTCAVYGGSFSGYYWSWIRQTPGKGLEWIGEISHSGNNNYNPSLKSRVTMSKDTSKNQFSLKLSSVTAADTAVYYCARIQLWLRGNDYYGMDVWGQGITVTVSS VL: DIQMTQSPSSLSASVGDRVTITCRASQGIRNDLGWYQQKPGKAPKRLIYAASSLQGGVPSRFSGSGSGTEFTLTISSLQPEDFATYYCLQHNSYPWTFGQGTKVEIK", "9 min"]
]}

// data source = patent US20130259876A1
